Molecular target: Ba/F3 cells with EGFR Δ19del/T790M/C797S mutation gene stably overexpressed (Homo sapiens, UniProt P00533, T790M/C797S, cells depend on it, form not given)
Sequence (P00533 with tags, fused parts or gaps DEL746-750/T790M/C797S, form open): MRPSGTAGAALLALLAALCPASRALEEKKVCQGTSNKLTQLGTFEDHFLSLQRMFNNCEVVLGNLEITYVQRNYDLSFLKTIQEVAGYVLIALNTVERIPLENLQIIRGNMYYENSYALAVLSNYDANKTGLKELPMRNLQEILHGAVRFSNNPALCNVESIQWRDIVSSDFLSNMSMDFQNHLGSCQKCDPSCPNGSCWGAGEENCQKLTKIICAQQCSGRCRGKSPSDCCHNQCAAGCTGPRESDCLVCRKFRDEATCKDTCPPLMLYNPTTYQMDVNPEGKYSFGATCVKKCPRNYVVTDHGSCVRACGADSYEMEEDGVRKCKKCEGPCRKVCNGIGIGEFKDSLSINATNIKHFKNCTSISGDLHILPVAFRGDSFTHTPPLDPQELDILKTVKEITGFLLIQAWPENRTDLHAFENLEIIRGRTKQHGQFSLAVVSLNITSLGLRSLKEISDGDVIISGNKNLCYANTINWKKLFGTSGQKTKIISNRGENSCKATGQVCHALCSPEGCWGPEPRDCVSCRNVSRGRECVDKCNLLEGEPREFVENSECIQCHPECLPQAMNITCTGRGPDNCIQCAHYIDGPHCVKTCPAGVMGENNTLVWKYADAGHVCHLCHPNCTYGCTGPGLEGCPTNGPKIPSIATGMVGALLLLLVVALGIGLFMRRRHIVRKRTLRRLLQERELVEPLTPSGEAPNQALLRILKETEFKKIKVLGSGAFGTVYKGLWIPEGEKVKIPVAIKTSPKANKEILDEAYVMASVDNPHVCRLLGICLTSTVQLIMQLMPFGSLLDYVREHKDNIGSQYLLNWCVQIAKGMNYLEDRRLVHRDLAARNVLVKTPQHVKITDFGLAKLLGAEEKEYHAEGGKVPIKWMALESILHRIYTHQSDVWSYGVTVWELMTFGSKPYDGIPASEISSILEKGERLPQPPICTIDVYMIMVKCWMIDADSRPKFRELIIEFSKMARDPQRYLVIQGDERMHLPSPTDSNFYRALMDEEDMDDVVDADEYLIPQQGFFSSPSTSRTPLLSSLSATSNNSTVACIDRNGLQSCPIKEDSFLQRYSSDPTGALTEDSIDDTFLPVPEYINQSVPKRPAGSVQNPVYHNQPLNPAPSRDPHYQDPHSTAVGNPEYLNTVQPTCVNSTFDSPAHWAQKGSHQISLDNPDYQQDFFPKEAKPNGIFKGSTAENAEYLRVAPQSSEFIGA
Test: Ba/F3-Δ19del/T790M/C797S cell proliferation assay (CellTiter Glo, 72 hours)
Assay type: cell-based
Conditions: Table 2, read-out: EGFR Δ19del/T790M/C797S IC50
Hi there, I'd appreciate the recorded log10 of GI50 for every entry that follows.
Parameter value (number): base-10 log of GI50 in nM.

Enquiry: Supply reported log10 of GI50 belonging to this molecule: `COc1cn(-c2ccc(Nc3nc(Nc4cc(-c5cnn(C)c5)c(N5CCN(c6cccnc6)CC5)cc4OC)ncc3Br)c(P(C)(C)=O)c2)cn1`
Return: 0.00

Enquiry: Supply reported log10 of GI50 belonging to this molecule: CCc1cc(Nc2ncc(Br)c(Nc3ccc(-n4cc(C)cn4)cc3P(C)(C)=O)n2)c(OC)cc1N1CCC(N2CCN(C)CC2)CC1 [Compound 86]
Return: 1.57

Enquiry: Supply reported log10 of GI50 belonging to this molecule: `CCc1cc(Nc2ncc(Cl)c(Nc3ccc(-c4cnc(OC)nc4)cc3P(C)(C)=O)n2)c(OC)cc1N1CCC(N2CCN(C)CC2)CC1`
Return: 1.35

Enquiry: Supply reported log10 of GI50 belonging to this molecule: `C#Cc1cnn(-c2ccc(Nc3nc(Nc4cc(CC)c(N5CCC(N6CCN(C)CC6)CC5)cc4OC)ncc3Br)c(P(C)(C)=O)c2)c1`
Return: 1.21

Enquiry: Supply reported log10 of GI50 belonging to this molecule: `CCc1cc(Nc2ncc(Br)c(Nc3ccc(-c4ncc(C(C)C)cn4)cc3P(C)(C)=O)n2)c(OC)cc1N1CCC(N2CCN(C)CC2)CC1`
Return: 1.60

Enquiry: Supply reported log10 of GI50 belonging to this molecule: `CCc1cc(Nc2ncc(Br)c(Nc3ccc(-c4cnn(C)c4)c(OC)c3P(C)(C)=O)n2)c(OC)cc1N1CCC(N2CCN(C)CC2)CC1`
Return: 1.20

The reported measurements were obtained from patent US20220402948A1.
